- Test system: FXR:RXRa (NR concentration 270 nM, RXRa partner concentration 90 nM)
- assay details: PBM binding z-score (relative to random genomic background probes); higher = stronger binding; sequences stand for … in GC…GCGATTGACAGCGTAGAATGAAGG
Consider the reported PBM binding z-score of an entry and match it to a band in 0 = under 0.2, 1 = from 0.2 up to 0.9, 2 = 0.9 and over

{"columns": ["seq text", "assigned label"],
 "data": [
  ["ACAGACAGGTCATGAAGGTAACTCAGGCTATCAT", 2],
  ["CCACGGAGGACAACAGGAGGTCAGAGCTGCCAGA", 2],
  ["GCATATAGGTAATACAGGGTGAAAGTCCGATTGT", 1],
  ["TCTCGGAGGACACGAAGGTCTGAGCTTTCCAGAG", 0]
]}

Categorize the following entry: TCTTGTAGATAAACAGGAGGTTAAGAAAGATCGA
0

Categorize the following entry: TCGAGTAGGTTACCAATGGGGCACTCAGCTTTCT
0

Categorize the following entry: GGAACGAGGGCATTCGAGTTAATAGCATGGCGAT
2

Categorize the following entry: CCTACTGGGCCATCATGTCATTGATATCAACGTT
0

Categorize the following entry: GGAAAGAGGGCAAAGTTGATAGCATCTGTCGACG
2

Categorize the following entry: GGAACGAGGGCTAGTTGATAGCAGAGTTTGATGG
0

Categorize the following entry: CCTGACAGGTGAGAAGGTAACTCAGCCTCGATTA
0

Categorize the following entry: TCGGGTAGGTTAGTCGGGGCATTCAGCCAACATA
1

Categorize the following entry: CTACCATGGTGAACAAGGTCGTTGATTACTATTC
1

Categorize the following entry: CCTTACGGGTCACTGACAGGTTGTAGCATTTGGA
2

====

- System: LXRa:RXRa (NR concentration 270 nM, RXRa partner concentration 90 nM)
- assay details: PBM binding z-score (relative to random genomic background probes); higher = stronger binding; sequences stand for … in GC…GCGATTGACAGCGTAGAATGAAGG
Here, each record is paired with measured PBM binding z-score data.

{"columns": ["seq text", "result"],
 "data": [
  ["ATCTCTCGGTAACAAGTTCAGTGAAAGAGAGGAC", 0.429]
]}

The recorded PBM binding z-score with LXRa:RXRa (NR concentration 270 nM, RXRa partner concentration 90 nM) for TCTGCTAGGTCAACGATGGTTAGCTAATCTGCTA was 2.08

The recorded PBM binding z-score with LXRa:RXRa (NR concentration 270 nM, RXRa partner concentration 90 nM) for CAAACTAAGTCAAAGGTCAAAGTCGAGCCAACCA was 6.42

====

- System: PPARg:RXRa 90nM:30nM, anti-RXR (NR concentration 90 nM, RXRa partner concentration 30 nM)
- assay details: PBM binding z-score (relative to random genomic background probes); higher = stronger binding; sequences stand for … in GC…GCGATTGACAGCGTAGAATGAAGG
Here, each record is paired with measured PBM binding z-score data.
I'd appreciate a reply containing only the number, no unit.

Field: example entries. Status: answers known.
{"columns": ["seq text", "numeric result"],
 "data": [
  ["CGTCAAAGTTCAACTATGGTAACGTAAAGCACGC", 4.52],
  ["ATCTCTAGGTAACCAAGTCCAGTGAATGCCGAAC", 0.381],
  ["GCGACTGGGTCATCAGCAGGTTACCATAACTTAA", 3.88],
  ["CCTTACGGGTGACTCCAGGTTATAGCATCGGAGT", 0.123],
  ["GTACCAAAGTGAATAGGTCGTTGATGAGTAGGCG", -0.0827]
]}

Turning now to a further record.
Field PBM binding z-score (entry ATATGTCGGTTAAGGGTCATTCAGGTTGGTTCGC ) reads 9.33

====

- System: PPARg:RXRa 270nM:90nM, anti-RXR (NR concentration 270 nM, RXRa partner concentration 90 nM)
- assay details: PBM binding z-score (relative to random genomic background probes); higher = stronger binding; sequences stand for … in GC…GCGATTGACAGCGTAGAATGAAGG
Consider the reported PBM binding z-score of an entry and match it to a band in lo = under 2, mid = from 2 up to 4, hi = 4 and over

# count of solved cases: 3
{"columns": ["seq text", "assigned label"],
 "data": [
  ["CCTACTGGGCCAGGGTCATTGATCAGTCAAAGCA", "mid"],
  ["TGTTAAAGTTCAAAGGTAACGTAAGTATCCACAC", "hi"],
  ["GATACAGGGTCAGCTAGAGGCCAGAGCATGGAAA", "mid"]
]}

Categorize the following entry: TCTCGGAGGACACGAAGGTCAGAGTTTTCCAGAG
lo

Categorize the following entry: CGTCCAAGGTCAATGCCAGGTCAGTGAAAGCATT
hi

Categorize the following entry: TCTCGGAGGACACGAGAGGTCAGAGCTCGACATC
lo

Categorize the following entry: GCTTGGAGATCAAGGTTAAGAAAGACTAAGCTAA
lo

Categorize the following entry: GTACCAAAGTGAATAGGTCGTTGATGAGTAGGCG
lo

Categorize the following entry: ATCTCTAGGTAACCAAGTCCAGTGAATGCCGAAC
lo

Categorize the following entry: AATTACGGGTCAACGAGGTTATAGCACGCGTATA
hi

Categorize the following entry: AGAATGAGGTTATTAAGAGCAGGGAATTGCGGTC
lo

Categorize the following entry: TCTGCTAGGTCAACGCTGGTCAGCTAATCTGCTA
mid

Categorize the following entry: CGAACGAGGGCAGGAGTTGATAGCAAATGCCGAT
lo

Categorize the following entry: TGTCAAAGTACAAAGGTAACGTAAGTATCCACAC
hi

Categorize the following entry: CCTTACGGGTCACTAACAGGTTATAGCATTTGGA
mid

Categorize the following entry: CAAACTAGGTCACGGGAAGGTCAAAGTCCGCATG
hi

Categorize the following entry: CGTCCAAGGTCATCAGGTCAGTGAAAGCGACGTG
hi

Categorize the following entry: CCTGCTAGGTCAATGGTTAGCTAAAGCAGCTCGC
mid

Categorize the following entry: GGAACGAGGGCTAAGTTGATAGCATCTGTCGACG
mid

====

- System: VDR:RXRa (NR concentration 270 nM, RXRa partner concentration 90 nM)
- assay details: PBM binding z-score (relative to random genomic background probes); higher = stronger binding; sequences stand for … in GC…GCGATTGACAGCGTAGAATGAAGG
Consider the reported PBM binding z-score of an entry and match it to a band in lower: < 0.9; middle: ≥ 0.9 and < 3; upper: ≥ 3

{"columns": ["seq text", "assigned label"],
 "data": [
  ["AGTCAAAGTTCATGTAGGTAACGTAAGATATGCT", "upper"],
  ["CGAAATAGGTCAGAACAGGACAGTGAAGGATGAT", "middle"],
  ["GCAGACAGGTGAAACGCGGGTAACTCAGGGTGGC", "lower"],
  ["CCTAGTTGGTTAGGAGGTCACACACCGGATATGA", "upper"]
]}

Categorize the following entry: CCTTACGGGTCACTTCAGGTTATAGCATCGGAGT
upper

Categorize the following entry: AATACAGGGTCACTAGGCCTGAGTAGGTACGAAT
upper

Categorize the following entry: TCTGCTAGGTCAACGATGGTCAGCTAATCTGCTA
middle

Categorize the following entry: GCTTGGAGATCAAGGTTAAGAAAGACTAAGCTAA
lower

Categorize the following entry: ACTCAAAGTTCACTAGGTAACGTAAGATTCAGCT
upper

Categorize the following entry: GGAACGAGGGCAAAGTTGATACCATCTGTCGACG
middle

Categorize the following entry: TCTTGTAGATCAAGCAGGTTAAGAAGGCCTGAGT
lower

====

- Tested on: PPARa:RXRa (NR concentration 270 nM, RXRa partner concentration 90 nM)
- assay details: PBM binding z-score (relative to random genomic background probes); higher = stronger binding; sequences stand for … in GC…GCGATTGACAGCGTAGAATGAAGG
Decision: PBM binding z-score compared against 1; not below it gives 1, below it gives -1.

{"columns": ["seq text", "experimental system", "assigned label"],
 "data": [
  ["TCTATTAGTAGAAGGGCAACCGACGAGTCCGTTT", "PPARa:RXRa (NR concentration 270 nM, RXRa partner concentration 90 nM)", -1],
  ["ATCTCTAGGTAACCAAGTTCAGTGTATGCCGAAC", "PPARa:RXRa (NR concentration 270 nM, RXRa partner concentration 90 nM)", 1],
  ["TAGCCTAGGTCATTCACGGGCCAGTATAGAAAGC", "PPARa:RXRa (NR concentration 270 nM, RXRa partner concentration 90 nM)", 1],
  ["AAAATGAGGTTATACGTAGATCAGGGAAGAAAGT", "PPARa:RXRa (NR concentration 270 nM, RXRa partner concentration 90 nM)", 1]
]}

Can TAGGCTAGGTCATTCAGGGGCCAGTATAGAAAGC be said to have PBM binding z-score at or above 1?
1

Can GCTGCTAGGTCAGGTTTGTCAGCTAACGGGTACG be said to have PBM binding z-score at or above 1?
-1

Can GTACCAATGTGAATAGGTCGTTGATGAGTAGGCG be said to have PBM binding z-score at or above 1?
-1

Can ACTAGCAGGCCAAGGTTGGGTCACTCAAACAAAG be said to have PBM binding z-score at or above 1?
1

Can TCTTGTTGGTCACGGAGGTCACACACGACGGGTA be said to have PBM binding z-score at or above 1?
1

Can ATACCAAGGTGATTGTGAGGTCGTTGATACTAAC be said to have PBM binding z-score at or above 1?
1

Can AGAATGAGGTTACCAAAGATCAGGGAGACGCTTG be said to have PBM binding z-score at or above 1?
1
